# Experimental system: T1, DLG3_1, Q92796
# T1 sequence (Q92796 125-227, limits assumed, looked up): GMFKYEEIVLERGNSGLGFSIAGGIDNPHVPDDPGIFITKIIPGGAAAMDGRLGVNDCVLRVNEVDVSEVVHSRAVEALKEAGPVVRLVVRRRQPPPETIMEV
# Procedure details: holdup assay
# Design: key: below the threshold = too weak to quantify, mostly under pKd 3.1 to 4
# Assay conditions: plain residues with an end cap or a label only (N-terminal biotin on a linker: ado-ado)
Endpoint name: pKd

HYPASPDSWV [CTNND2, Q9UQB3] | 3.99
SQDPKKPSRV [CBY2, Q8NA61] | below the threshold
PKSNSSKEYV [CLDN7, O95471] | below the threshold
TFSRRPKTRV [CD226, Q15762] | below the threshold

Return reported pKd. Input binder: AHGSTRDQSI [KCNB1, Q14721]
3.68

Give me measured pKd, please, for this binder: SGDGKTSVWI [GJC1, P36383]
below the threshold

Please report pKd for the following binder: HDDYFYHDEL [RCN2, Q14257]
below the threshold
